- target_desc: proton pump (H+/K+-ATPase) (Sus scrofa, UniProt P19156)
- Construct: Gastric vesicles were prepared from hog stomach via centrifugal separation
- Sequence (P19156 whole entry): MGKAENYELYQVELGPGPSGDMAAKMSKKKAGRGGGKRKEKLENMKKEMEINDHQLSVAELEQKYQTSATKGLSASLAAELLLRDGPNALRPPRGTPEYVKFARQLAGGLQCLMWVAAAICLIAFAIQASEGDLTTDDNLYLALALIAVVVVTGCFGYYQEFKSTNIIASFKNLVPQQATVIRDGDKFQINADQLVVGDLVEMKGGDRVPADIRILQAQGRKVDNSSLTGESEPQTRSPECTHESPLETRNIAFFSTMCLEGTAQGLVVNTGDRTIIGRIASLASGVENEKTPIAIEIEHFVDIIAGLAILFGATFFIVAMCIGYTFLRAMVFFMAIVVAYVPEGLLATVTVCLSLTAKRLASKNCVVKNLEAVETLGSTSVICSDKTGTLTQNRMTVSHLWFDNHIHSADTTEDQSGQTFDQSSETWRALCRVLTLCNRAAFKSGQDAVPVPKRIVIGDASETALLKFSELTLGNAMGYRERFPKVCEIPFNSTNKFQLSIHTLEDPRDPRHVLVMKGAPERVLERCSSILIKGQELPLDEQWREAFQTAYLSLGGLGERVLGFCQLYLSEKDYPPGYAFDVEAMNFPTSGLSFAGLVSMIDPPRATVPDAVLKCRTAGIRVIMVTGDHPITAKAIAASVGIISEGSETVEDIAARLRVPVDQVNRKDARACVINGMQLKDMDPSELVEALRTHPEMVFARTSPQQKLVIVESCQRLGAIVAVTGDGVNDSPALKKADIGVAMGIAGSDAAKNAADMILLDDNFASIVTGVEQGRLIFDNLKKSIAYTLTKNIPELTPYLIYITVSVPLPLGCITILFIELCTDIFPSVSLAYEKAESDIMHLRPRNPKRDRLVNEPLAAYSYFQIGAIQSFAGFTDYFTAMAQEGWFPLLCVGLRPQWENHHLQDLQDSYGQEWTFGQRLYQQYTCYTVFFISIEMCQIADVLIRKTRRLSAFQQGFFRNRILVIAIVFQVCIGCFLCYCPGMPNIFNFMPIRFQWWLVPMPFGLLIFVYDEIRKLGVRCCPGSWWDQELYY
- Sequence (P18434 whole entry partner): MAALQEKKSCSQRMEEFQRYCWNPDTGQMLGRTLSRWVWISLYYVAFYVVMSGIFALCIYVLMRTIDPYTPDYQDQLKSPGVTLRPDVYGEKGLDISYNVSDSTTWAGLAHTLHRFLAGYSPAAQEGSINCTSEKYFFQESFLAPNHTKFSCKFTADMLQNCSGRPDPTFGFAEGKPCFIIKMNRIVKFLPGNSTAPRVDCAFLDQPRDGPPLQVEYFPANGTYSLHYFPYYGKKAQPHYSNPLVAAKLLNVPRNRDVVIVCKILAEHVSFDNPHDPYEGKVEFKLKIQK
- assay_explanation: Measurement of inhibitory effects on proton pump (H+/K+-ATPase) activities
- condition: hog gastric vesicles, K+-specific H+/K+-ATPase activity, Tris-HCl buffer pH 7.4, 37° C. for 40 minutes, malachite green Pi readout
Structures can show the parent of a compound that is named as a salt.
What IC50 was measured for each of the following?
One number for each entry, in nM.

Consider the worked cases shown below.
CNCc1cn(S(=O)(=O)c2cccc(OC)c2)c2cc(Nc3ccc(C)cc3Cl)ccc12 [Example 163, hydrochloride] :: 140
CNCc1cn(S(=O)(=O)c2cccc(OC(F)(F)F)c2)c2cc(Nc3ccc(C(F)(F)F)cc3Cl)ccc12 [Example 198, hydrochloride] :: 160
CNCc1cn(S(=O)(=O)c2cccnc2)c2cc(Nc3c(C)cc(Br)cc3C)ccc12 [Example 90, hydrochloride] :: 710

Provide IC50 for all items below, preserving their order.
1. CNCc1cn(S(=O)(=O)c2cccnc2)c2cc(Nc3ccc(C(F)(F)F)cc3C(F)(F)F)ccc12 [Example 35, hydrochloride]
2. CNCc1cn(S(=O)(=O)c2cccc(C#N)c2)c2cc(Nc3ccc(C)cc3F)ccc12 [Example 227, hydrochloride]
3. CNCc1cn(S(=O)(=O)c2cccnc2)c2cc(Nc3c(C)cc(Cl)cc3C)ccc12 [Example 85, hydrochloride]

[1630, 6490, 370]

Hi! What's the reported IC50 for CNCc1cn(S(=O)(=O)c2cccc(OC(F)F)c2)c2cc(Nc3ccc(C)cc3Cl)ccc12 [Example 175, hydrochloride] on proton pump (H+/K+-ATPase) (Sus scrofa, UniProt P19156)?
150

###

- target_desc: proton pump (H+/K+-ATPase) (Sus scrofa)
- Construct: Gastric vesicles were prepared from hog stomach via centrifugal separation
- assay_explanation: Measurement of inhibitory effects on proton pump (H+/K+-ATPase) activities
- condition: hog gastric vesicles, K+-specific H+/K+-ATPase activity, Tris-HCl buffer pH 7.4, 37° C. for 40 minutes, malachite green Pi readout
Counter-ions that a name gives are not always drawn.
Exercise: for every item that follows, state its recorded IC50.

Worked examples follow.
CNCc1cn(S(=O)(=O)c2cccnc2)c2cc(Cc3ccc(C)cc3F)ccc12 [Example 272, hydrochloride] :: 500 nM
CNCc1cn(S(=O)(=O)c2cccc(OC(F)F)c2)c2cc(Nc3ccc(OC)cc3F)ccc12 [Example 178, hydrochloride] :: 610 nM
CNCc1cn(S(=O)(=O)c2ccc(Cl)cc2)c2cc(Nc3ccc(C)cc3F)ccc12 [Example 230, hydrochloride] :: 910 nM
CNCc1cn(S(=O)(=O)c2cccc(OC(F)(F)F)c2)c2cc(Nc3ccc(OC(F)(F)F)cc3C)ccc12 [Example 200, hydrochloride] :: 900 nM
CNCc1cn(S(=O)(=O)c2cccc(OC)c2)c2cc(Nc3ccc(OC)nc3Cl)ccc12 [Example 173, hydrochloride] :: 1190 nM

I have 8 compounds here; please give me IC50 for each one.
1. CNCc1cn(S(=O)(=O)c2cccnc2)c2cc(Nc3cc(F)c(C(F)(F)F)cc3F)ccc12 [Example 78, hydrochloride]
2. CNCc1cn(S(=O)(=O)c2cccnc2)c2cc(Nc3cc(Cl)c(Cl)cc3Cl)ccc12 [Example 76, hydrochloride]
3. COC(=O)c1cn(S(=O)(=O)c2cccnc2)c2cc(-c3ccc(OC)cc3)ccc12
4. CNCc1cn(S(=O)(=O)c2cccnc2)c2cc(Nc3ccc(O)cc3C)ccc12 [Example 47, hydrochloride]
5. CNCc1cn(S(=O)(=O)c2cccc(OC(F)F)c2)c2cc(Nc3ccc(Cl)cc3F)ccc12 [Example 176, hydrochloride]
6. CNCc1cn(S(=O)(=O)c2cccc(F)c2)c2cc(Nc3ccc(OC(F)(F)F)cc3C)ccc12 [Example 140, hydrochloride]
7. CNCc1cn(S(=O)(=O)c2cccnc2)c2cc(Nc3ccnc(Cl)c3Cl)ccc12 [Example 132, hydrochloride]
8. CNCc1cn(S(=O)(=O)c2cccc(Cl)c2)c2cc(Nc3ccc(C)cc3F)ccc12 [Example 146, hydrochloride]

2260 nM
350 nM
1340 nM
840 nM
370 nM
190 nM
730 nM
150 nM

Provide the reported IC50 of each entry below, same order.
1. CNCc1cn(S(=O)(=O)c2cncc(F)c2)c2cc(Nc3ccc(C)cc3Cl)cnc12 [Example 350, hydrochloride]
2. CNCc1cn(S(=O)(=O)c2cccnc2)c2cc(Nc3ncccc3C(F)(F)F)ccc12 [Example 101, hydrochloride]
3. COC(=O)c1cn(S(=O)(=O)c2ccc(Cl)nc2)c2cc(-c3ccc(F)nc3)ccc12

1. 260 nM
2. 2200 nM
3. 3150 nM

###

- target_desc: proton pump (H+/K+-ATPase) (Sus scrofa, UniProt P19156)
- Construct: Gastric vesicles were prepared from hog stomach via centrifugal separation; from tissue; host or cells: hog stomach (gastric vesicles, method of Rabon et al. 1988)
- assay_explanation: Measurement of inhibitory effects on proton pump (H+/K+-ATPase) activities
- Format: biochemical
- condition: hog gastric vesicles, K+-specific H+/K+-ATPase activity, Tris-HCl buffer pH 7.4, 37° C. for 40 minutes, malachite green Pi readout
Structures can show the parent of a compound that is named as a salt.
Field: pIC50. Provide a value for each of the compounds that follow.
Numbers only, as −log10 of the molar value.

# annotated cases, reported pIC50 shown
CNCc1cn(S(=O)(=O)c2cccnc2)c2cc(Cc3ccc(Cl)cc3F)ccc12 [Example 274, hydrochloride] :: 5.93
CNCc1cn(S(=O)(=O)c2cccnc2)c2cc(Cc3ccc(OC(F)(F)F)cc3Cl)ccc12 [Example 280, hydrochloride] :: 6.07
CNCc1cn(S(=O)(=O)c2cccnc2)c2cc(Nc3ccc(C)cc3Cl)cnc12 [Example 345, hydrochloride] :: 6.92
CNCc1cn(S(=O)(=O)c2cncc(F)c2)c2cc(Nc3ccc(C)cc3Cl)ccc12 [Example 211, hydrochloride] :: 7.05

For each of the compounds below, note its pIC50.
1. CNCc1cn(S(=O)(=O)c2ccc(OC(F)(F)F)cc2)c2cc(Nc3ccc(C)cc3Cl)ccc12 [Example 207, hydrochloride]
2. CNCc1cn(S(=O)(=O)c2cccc(OC(F)(F)F)c2)c2cc(Cc3ccc(C)cc3Cl)ccc12 [Example 305]
3. CNCc1cn(S(=O)(=O)c2cccc(F)c2)c2cc(Cc3ccc(C)cc3Cl)ccc12 [Example 299]

1. 6.26
2. 6.21
3. 6.57

###

Provide the reported log10 IC50 of each item.
- target_desc: proton pump (H+/K+-ATPase) (Sus scrofa, UniProt P19156)
- Construct: Gastric vesicles were prepared from hog stomach via centrifugal separation
- assay_explanation: Measurement of inhibitory effects on proton pump (H+/K+-ATPase) activities
- condition: hog gastric vesicles, K+-specific H+/K+-ATPase activity, Tris-HCl buffer pH 7.4, 37° C. for 40 minutes, malachite green Pi readout
- Method: 1) Preparation of Gastric Vesicles Gastric vesicles were prepared from hog stomach via centrifugal separation (Edd C. Rabon et al., Preparation of Gastric H^+,K^+-ATPase, Methods in enzymology, vol. 157 Academic Press Inc., (1988), pp. 649-654). The protein contents of the thus prepared gastric vesicles were quantitated by Bicinchoninic Acid (BCA) kit. […] The inhibitory effects of the compounds of the present invention against proton pump activities were measured using a 96-well plate. […]
Counter-ions that a name gives are not always drawn.
Each number you see is log10 of IC50, and the unit inside the log is nM.

Below are worked cases with known answers.
CN(C)C(=O)c1cn(S(=O)(=O)c2cccnc2)c2cc(Nc3ccc(Cl)nc3Cl)ccc12 :: 4.85
CNCc1cn(S(=O)(=O)c2cccnc2)c2cc(Nc3ccc(Br)cc3OC(F)(F)F)ccc12 [Example 46, hydrochloride] :: 3.37
CNCc1cn(S(=O)(=O)c2cccnc2)c2cc(-c3ccc(F)nc3)ccc12 [Example 255, hydrochloride] :: 4.07
CCc1cc(C#N)ccc1Nc1ccc2c(CNC)cn(S(=O)(=O)c3cccnc3)c2c1 [Example 37, hydrochloride] :: 2.70
CNCc1cn(S(=O)(=O)c2cccc(C(F)(F)F)c2)c2cc(N(C)c3ccc(OC)nc3Cl)ccc12 [Example 315, hydrochloride] :: 3.47

Batch of 2 molecules: report log10 IC50 for each.
1. CNCc1cn(S(=O)(=O)c2cccnc2)c2cc(Nc3cc(Cl)cnc3C)ccc12 [Example 126, hydrochloride]
2. COC(=O)c1cn(S(=O)(=O)c2cccnc2)c2cc(-c3ccc(F)nc3)ccc12

2.71
3.43

###

- target_desc: proton pump (H+/K+-ATPase) (Sus scrofa, UniProt P19156)
- Construct: Gastric vesicles were prepared from hog stomach via centrifugal separation
- assay_explanation: Measurement of inhibitory effects on proton pump (H+/K+-ATPase) activities
- condition: hog gastric vesicles, K+-specific H+/K+-ATPase activity, Tris-HCl buffer pH 7.4, 37° C. for 40 minutes, malachite green Pi readout
Structures can show the parent of a compound that is named as a salt.
endpoint: IC50 (nM)
Answers are plain numbers, in nM.

Some compounds with recorded IC50:
COc1ccc(Nc2ccc3c(C(=O)N(C)C)cn(S(=O)(=O)c4cccnc4)c3c2)c(F)c1 :: 20000
CNCc1cn(S(=O)(=O)c2cccc(F)c2)c2cc(Nc3ccc(Cl)nc3OC)ccc12 [Example 141, hydrochloride] :: 390
CNCc1cn(S(=O)(=O)c2cccnc2)c2cc(Nc3cccnc3Cl)ccc12 [Example 107, hydrochloride] :: 480

Look up IC50 for the entries below, preserving their order.
1. CNCc1cn(S(=O)(=O)c2cccc(OC(F)(F)F)c2)c2cc(Cc3ccc(OC)nc3Cl)ccc12
2. CNCc1cn(S(=O)(=O)c2cccnc2)c2cc(Nc3ccc(Br)cc3C(F)(F)F)ccc12 [Example 45, hydrochloride]
3. CNCc1cn(S(=O)(=O)c2cccnc2)c2cc(-c3cccc(Cl)c3)ccc12
4. CNC(=O)c1cn(S(=O)(=O)c2cccc(C(F)(F)F)c2)c2cc(Nc3ccc(OC)nc3Cl)ccc12
5. CCc1cc(Br)ccc1Nc1ccc2c(CNC)cn(S(=O)(=O)c3cccnc3)c2c1 [Example 43, hydrochloride]
6. CNCc1cn(S(=O)(=O)c2cccc(F)c2)c2cc(Nc3ccc(C)cc3Cl)ncc12 [Example 353, hydrochloride]

[1190, 1200, 2440, 20000, 3020, 830]

Fill in IC50 for each of the 5 compounds listed.
1. CNCc1cn(S(=O)(=O)c2cccnc2)c2cc(Nc3ccc(C)nc3F)ccc12 [Example 112, hydrochloride]
2. CNCc1cn(S(=O)(=O)c2cccnc2)c2cc(Nc3ccc(Cl)nc3OC)ccc12 [Example 120, hydrochloride]
3. CNCc1cn(S(=O)(=O)c2cccc(OC(F)F)c2)c2cc(Nc3ccc(C)c(F)c3F)ccc12 [Example 180, hydrochloride]
4. CNCc1cn(S(=O)(=O)c2cccnc2)c2cc(Cc3ccc(C(F)(F)F)cc3Cl)ccc12 [Example 276, hydrochloride]
5. CNCc1cn(S(=O)(=O)c2cncc(F)c2)c2cc(Nc3ccc(OC(F)(F)F)cc3Cl)ccc12 [Example 215, hydrochloride]

[950, 420, 270, 670, 820]

Recorded IC50 for CNCc1cn(S(=O)(=O)c2cccnc2)c2cc(Nc3ccc(C)cc3C)ccc12 [Example 21, hydrochloride] with proton pump (H+/K+-ATPase) (Sus scrofa, UniProt P19156), please?
210
